Data provenance: patent US5026694A

- System: CHO cells
- Assay: Radiosensitization of CHO cells (enhancement ratio)
- Format: cell-based, Chinese hamster
- Condition notes: 100 mM/dm^3; cis configuration or ligand alone; dose to reduce survival to 1%
Measured parameter: enhancement ratio (ER)
Give bare numbers.

Solved cases below.
Molecule | enhancement ratio (ER)
N.Nc1ncc([N+](=O)[O-])s1.[Cl][Pt][Cl] [mono-ANT, PtCl2 (ammine)(2-amino-5-nitrothiazole)] | 1.15
N.O=[N+]([O-])c1c[nH]cn1.[Cl][Pt][Cl] [mono-4NI, PtCl2 (ammine)(4-nitroimidazole)] | 1.16
Nc1ncc([N+](=O)[O-])s1 [ANT, 2-amino-5-nitrothiazole] | 1.25

For the next question, use this molecule.
// lookup enhancement ratio (ER) | system=CHO cells | key= O=[N+]([O-])c1c[nH]cn1 [4-nitroimidazole]
1.10

###

- System: L1210 cells, cDDP resistant line
- Assay: Toxicity in cisDDP-resistant L1210 cells (cross-resistance)
- Type: cell-based
- Condition notes: L1210, cDDP resistant line; read-out: ID50 (the source's name)
Measured parameter: IC50

Solved cases below.
Compound | IC50
N.N.[Cl][Pt+2][Cl] [trans-DDP, transdichlorodiamine platinum II] | 66 mM
N.N.[Cl][Pt][Cl] [cis-DDP, cis[PtCl2 (NH3)2]] | 5 mM

For the next question, use this compound.
Quick one: IC50 of COCC(O)Cn1cc[n+]([Pt-2]([NH3+])([Cl])[Cl])c1[N+](=O)[O-] (stereo not drawn) [trans-mono-MISO, PtCl2 (NH3) (misonidazole)] ?
18.6 mM

###

- Test system: Chinese hamster ovary (CHO) cells
- Assay: Toxicity in hypoxic and aerated CHO cells (plating efficiency/survival)
- Format: cell-based
- Condition notes: 100 mM/dm^3 experiments
Measured parameter: toxicity compared with the compounds of the invention

Molecule | Assay result
N.N.[Cl][Pt+2][Cl] [trans-DDP, transdichlorodiamine platinum II] | somewhat less toxic
COCC(O)Cn1cc[n+]([Pt-2]([Cl])([Cl])[n+]2ccn(CC(O)COC)c2[N+](=O)[O-])c1[N+](=O)[O-] (stereo not drawn) [trans-bis-MISO, trans-[PtCl2 (miso)2]] | somewhat less toxic
